Entries and their composite z-score values follow.
Tested on: Human papillomavirus type 1a E7 protein (residues 1-88)
protocol: HPV1a E7 small-molecule binders, primary screen, biochemical, small-molecule microarray, residues 1-88, 635 nm (AID 1129)
condition_notes: small-molecule microarray binding, fluorescence 635 nm; higher = more signal
measured_metric: composite z-score

{"compound": "CC(C)C[C@@H]1NC(=O)[C@@H]2C[C@H](C(=O)NCCCCCCNC(=O)CS)[C@H](c3cccc(OCCO)c3)N2C1=O", "meas_value": 1.26}
{"compound": "C[C@@H]1ON(c2ccccc2)[C@H](c2ccccc2)[C@H]1C(=O)O", "meas_value": 0.212}
{"compound": "COCCCNC(=O)[C@@]1(CCS(=O)(=O)c2ccccc2)COC(c2ccc(OCCCO)cc2)=N1", "meas_value": 0.92}
{"compound": "CN1C(=O)C2C=CC(C(O)c3ccc(-c4ccccc4)s3)N(NC(=O)OC(C)(C)C)C2C1=O (stereo not given)", "meas_value": 1.14}
{"compound": "CCCCCC1=C2CNC(Cc3ccccc3)(C(=O)OC)C=C2C(C)C1=O (stereo not given)", "meas_value": 0.515}
{"compound": "CCCNC(=O)[C@@]1(c2ccc([N+](=O)[O-])cc2)CC(=O)N(C(C)C)[C@@H]1c1ccc(CO)cc1", "meas_value": 0.143}
{"compound": "C=C(CCCC)/C(=C/C[C@H](OC(C)=O)c1cccc(OCCO)c1)c1cnc2ccccc2c1", "meas_value": -0.263}
{"compound": "[N-]=[N+]=NCc1ccccc1[C@@H]1OC(c2ccc(OCCCO)cc2)=N[C@]1(Cc1ccccc1N=[N+]=[N-])C(=O)O", "meas_value": 1.23}
{"compound": "C=CCC(OC(C)=O)[C@@H]1[C@@H](N(Cc2ccc(-c3cccc(C(F)(F)F)c3)o2)C(=O)Cc2ccc(F)cc2)c2cc(OCCCO)ccc2N1C(=O)Cc1ccc2ccccc2c1 (stereo not given in full)", "meas_value": -1.33}
{"compound": "CCOC(=O)C1=CCC(c2cc3ccccc3[nH]2)N(CCN2CC(C(=O)OCC)=CCC2c2cc3ccccc3[nH]2)C1 (stereo not given)", "meas_value": 1.22}
{"compound": "C=CC[C@]1(C(=O)NCC(O)CO)COC(c2ccc(OCCCO)cc2)=N1 (stereo not given in full)", "meas_value": 0.57}
{"compound": "COc1ccc([Si](C)(C)[C@@H]2[C@@H](CC(=O)N3CCC[C@H]3CO)O[C@]3(C(=O)N(Cc4cccc(N5CCCCC5=O)c4)c4ccccc43)[C@H]2C)cc1", "meas_value": 1.03}
{"compound": "COc1ccc(C(=O)Nc2ccc(CN3C(=O)[C@@]4(O[C@@H](CCn5cc(CCO)nn5)[C@H]([Si](C)(C)c5ccc(OC)cc5)[C@H]4C)c4ccccc43)cc2)cc1", "meas_value": 1.17}
{"compound": "CN(C)CCCNC(=O)[C@@]1(Cc2ccccc2I)c2ccccc2C(=O)N(C2CCCCC2)[C@H]1c1ccc(CO)cc1", "meas_value": 1.2}
{"compound": "CCOC(=O)C[C@H]1[C@H](OC(=O)c2ccccc2-c2ccccc2)[C@@H](NC(=O)c2ccc3ccccc3c2)c2cc(OCCCO)ccc2N1C(=O)Cc1ccc(OC)cc1", "meas_value": -0.191}
{"compound": "C=CC[C@@]1(C(=O)N(C)C)N=C(c2ccc(OCCCO)cc2)O[C@@H]1c1ccccc1CN=[N+]=[N-]", "meas_value": 1.22}
{"compound": "[N-]=[N+]=NCc1ccccc1[C@@H]1OC(c2ccc(OCCCO)cc2)=N[C@]1(Cc1ccccc1N=[N+]=[N-])C(=O)NCC(O)CO (stereo not given in full)", "meas_value": 1.2}
{"compound": "C=CCN1Cc2ccccc2[C@H]2OC(c3ccc(OCCCO)cc3)=N[C@@]2(CCS(=O)(=O)c2ccccc2)C1=O", "meas_value": 1.22}
{"compound": "CC(C)C(=C=CC[C@H](O)c1ccccc1OCCO)C[C@H](O)COCc1ccccc1", "meas_value": -0.141}
{"compound": "CC(C)OC(=O)CC(=O)CC(O)c1cccc([N+](=O)[O-])c1 (stereo not given)", "meas_value": 1.14}
{"compound": "COC(=O)[C@@]1(Cc2ccccc2)[C@H]2c3cc(C(=O)N(C)C)n(Cc4ccc(C(F)(F)F)nc4)c3C[C@H]2CN1C(=O)c1ccccc1", "meas_value": 1.29}
{"compound": "COCCOC(=O)N1C(=O)[C@@]2(c3cc(C#CCCO)ccc31)[C@H](c1ccc(OCCO)cc1)N1[C@H](c3ccccc3)[C@H](c3ccccc3)OC(=O)[C@H]1[C@@H]2C(=O)N1CCCCCCC1", "meas_value": 1.2}
{"compound": "CC(C)NC(=O)[C@@]1(c2ccc([N+](=O)[O-])cc2)CC(=O)N(CC23CC4CC(CC(C4)C2)C3)[C@@H]1c1ccc(CO)cc1", "meas_value": 1.18}
{"compound": "NCCCCCCNC(=O)[C@@H]1C[C@@H]2C(=O)N3CCC[C@H]3C(=O)N2[C@@H]1c1cccc(OCCO)c1", "meas_value": 0.894}
{"compound": "O=C1NC(=O)C2C1C=CC(C(O)c1ccc(B(O)O)cc1)N2Nc1ccc(Cl)cc1Cl (stereo not given)", "meas_value": -0.213}
{"compound": "C=CCOC(=O)[C@H]1[C@@H]2C(=O)O[C@@H](c3ccccc3)[C@@H](c3ccccc3)N2[C@@H](c2ccc(OCCOC(=O)[C@@H]3C[C@@H]4C(=O)N[C@@H](CCCCNC(C)=O)C(=O)N4[C@@H]3c3cccc(OCCO)c3)cc2)[C@]12C(=O)Nc1ccccc12", "meas_value": 1.19}
{"compound": "COCCCNC(=O)[C@@H]1c2ccccc2C(=O)N(Cc2ccc(OC(F)(F)F)cc2)[C@H]1c1ccc(CO)cc1", "meas_value": 1.11}
{"compound": "O=C(NCC(O)CO)[C@@]1(CCS(=O)(=O)c2ccccc2)N=C(c2ccc(OCCCO)cc2)O[C@H]1c1ccccc1 (stereo not given in full)", "meas_value": 1.23}
{"compound": "C=CC1c2cc(O)c(OC)cc2CCN1C (stereo not given)", "meas_value": -1.39}
{"compound": "Cc1ccc(F)cc1S(=O)(=O)N[C@H]1CCN(Cc2ccc(OC(C)C)cc2)C1", "meas_value": -0.296}
